Assay: Hematology assays in cynomolgus monkeys (Example 45)
Assay type: in vivo
Settings: day 71
This listing pairs substances with measured neutrophils.
outcomeMeasure: neutrophils (%)

{"substance": "ISIS 417002: MOE gapmer, nucleobases 1275 to 1318 of SEQ ID NO: 1 (Table 8) (antisense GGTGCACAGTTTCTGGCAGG; MOE gapmer, wing and gap sizes not given here)", "resultValue": 34}
{"substance": "ISIS 416864: MOE gapmer, nucleobases 1275 to 1318 of SEQ ID NO: 1 (Table 8) (antisense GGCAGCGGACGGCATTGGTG; MOE gapmer, wing and gap sizes not given here)", "resultValue": 42}
{"substance": "ISIS 416850: MOE gapmer, nucleobases 1275 to 1318 of SEQ ID NO: 1 (Table 8) (antisense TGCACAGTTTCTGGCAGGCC; MOE gapmer, wing and gap sizes not given here)", "resultValue": 27}
{"substance": "ISIS 416838: MOE gapmer, nucleobases 1018 to 1042 of SEQ ID NO: 1 (Table 6) (antisense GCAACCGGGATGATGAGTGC; MOE gapmer, wing and gap sizes not given here)", "resultValue": 28}
{"substance": "ISIS 416858: MOE gapmer, nucleobases 1275 to 1318 of SEQ ID NO: 1 (Table 8) (antisense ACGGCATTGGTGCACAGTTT; MOE gapmer, wing and gap sizes not given here)", "resultValue": 26}

* * *

Test system: Factor 11 protein
Assay: Factor 11 protein in monkey plasma by sandwich ELISA (Example 46)
Type: in vivo, cynomolgus monkeys
Conditions: Day 55, plasma, 25 mg/kg subcutaneously
Strand notation (5' to 3'): a small letter for the sugar, then the base; units joined by * are phosphorothioate-linked, units joined directly phosphodiester-linked; [ ] holds rarer units or linkages, { } end groups; capitals alone tell only the bases. e = 2'-O-(2-methoxyethyl) (MOE); [5mC] = 5-methylcytosine; d = 2'-deoxy (DNA)
Measured Inhibition of Factor 11 protein relative to the PBS control (percentage reduction) accompanies every entry in the list below.
outcomeMeasure: Inhibition of Factor 11 protein relative to the PBS control (percentage reduction) (%)

{"substance": "445522 (antisense eG*e[5mC]*eA*e[5mC]*eA*dG*dT*dT*dT*d[5mC]*dT*dG*dG*e[5mC]*eA*eG*eG*e[5mC]) [compound 445522]", "resultValue": 82}
{"substance": "416850 (antisense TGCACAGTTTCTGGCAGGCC; 5-10-5 gapmer, further chemistry not given here) [compound 416850]", "resultValue": 58}
{"substance": "449709 (antisense eG*e[5mC]*eA*e[5mC]*dA*dG*dT*dT*dT*d[5mC]*dT*dG*dG*d[5mC]*eA*eG*eG*e[5mC]) [compound 449709]", "resultValue": 50}
{"substance": "416858 (antisense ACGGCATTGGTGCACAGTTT; 5-10-5 gapmer, further chemistry not given here) [compound 416858]", "resultValue": 81}
{"substance": "449711 (antisense eA*e[5mC]*dA*dG*dT*dT*dT*d[5mC]*dT*dG*dG*d[5mC]*eA*eG) [compound 449711]", "resultValue": 5}
{"substance": "449708 (antisense eA*e[5mC]*eA*dG*dT*dT*dT*d[5mC]*dT*dG*dG*e[5mC]*eA*eG) [compound 449708]", "resultValue": 6}

* * *

Conditions: rat, in vivo, sc, 50 mg/kg
e = 2'-O-(2-methoxyethyl) (MOE); d = 2'-deoxy (DNA)
Below, each entry is listed with its recorded Neutrophil.

{"substance": "ISIS 416866: MOE gapmer, nucleobases 1275 to 1318 of SEQ ID NO: 1 (Table 8) (antisense CTGGCAGCGGACGGCATTGG; MOE gapmer, wing and gap sizes not given here)", "Neutrophil": 1916}
{"substance": "ISIS 413482: 5-10-5 MOE gapmer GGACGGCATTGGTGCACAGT (sugars from the 5' end e5 d10 e5, backbone and methylation of C not given here)", "Neutrophil": 1125}
{"substance": "ISIS 412225: 5-10-5 MOE gapmer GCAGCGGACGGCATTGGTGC (sugars from the 5' end e5 d10 e5, backbone and methylation of C not given here)", "Neutrophil": 1499}
{"substance": "ISIS 412224: 5-10-5 MOE gapmer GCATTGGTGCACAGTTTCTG (sugars from the 5' end e5 d10 e5, backbone and methylation of C not given here)", "Neutrophil": 1865}
{"substance": "ISIS 416861: MOE gapmer, nucleobases 1275 to 1318 of SEQ ID NO: 1 (Table 8) (antisense GCGGACGGCATTGGTGCACA; MOE gapmer, wing and gap sizes not given here)", "Neutrophil": 1813}
{"substance": "ISIS 416856: MOE gapmer, nucleobases 1275 to 1318 of SEQ ID NO: 1 (Table 8) (antisense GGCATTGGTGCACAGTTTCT; MOE gapmer, wing and gap sizes not given here)", "Neutrophil": 3280}
{"substance": "ISIS 413481: 5-10-5 MOE gapmer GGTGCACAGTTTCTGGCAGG (sugars from the 5' end e5 d10 e5, backbone and methylation of C not given here)", "Neutrophil": 1046}
{"substance": "ISIS 412223: 5-10-5 MOE gapmer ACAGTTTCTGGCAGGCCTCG (sugars from the 5' end e5 d10 e5, backbone and methylation of C not given here)", "Neutrophil": 1826}
{"substance": "ISIS 416867: MOE gapmer, nucleobases 1275 to 1318 of SEQ ID NO: 1 (Table 8) (antisense ACTGGCAGCGGACGGCATTG; MOE gapmer, wing and gap sizes not given here)", "Neutrophil": 3044}
